The origin of these recorded values is PubChem BioAssay (NCI).

system: SF-295 CNS; experiment: NCI tumour cell line growth inhibition, 48 h
Listing: GI50 of selected molecules
readout_kind: GI50

> print(dat)
                                   molecule  recorded.value
1  COc1ccc(N2C(=O)C(c3ccccc3)(c3ccccc3)C23C(=O)N(C)c2ccccc23)cc1 (centres undefined)        > 100 µM
2  Cn1cc(C2=C(c3ccc4ccccc4c3)C(=O)NC2=O)c2ccccc21       > 23.5 µM
3  CCOC(=O)/C=C/C(C(=O)/C=C/c1ccc(OC2CCCCO2)c(OC)c1)=C(O)\C=C\c1ccc(OC2CCCCO2)c(OC)c1 (centres undefined)         10.7 µM
4  CCN1CCN(c2ccc(Nc3cc(N(C)C(=O)Nc4c(Cl)c(OC)cc(OC)c4Cl)ncn3)cc2)CC1         11.4 µM

* * *

Listing: TGI of selected molecules
system: BT-549 breast; assay: NCI tumour cell line growth inhibition, 48 h
readout_kind: TGI (µM)

> print(dat)
                                   molecule  value.prefix  recorded.value
1  C=C(C)C(CC=C(C)C)CC12CC(CC=C(C)C)C(C)(C)C(CC=C(C)C)(C(=O)C(Cc3ccc(O)c(O)c3)=C1O)C2=O (stereo not drawn)             >             100
2  C=CCNC1=C2C[C@@H](C)C[C@@H](OC)[C@H](OC(=O)CCCCN)[C@H](C)/C=C(\C)[C@@H](OC(N)=O)[C@H](OC)/C=C\C=C(/C)C(=O)NC(=CC1=O)C2=O             =            33.4
3  CN(C)Cc1cc(C(=O)/C=C/c2ccc(Cl)cc2)cc(CN(C)C)c1O             =            11.3
4  CC1OC2CC(=O)OC2C2=C1C(=O)c1c(O)cccc1C2=O (stereo not drawn)             =           0.368
5                        O=C(O)c1n[nH]nc1Cl             >             100
6  CCOc1nc(-c2ccccc2)cc2c(O)c(-c3nnco3)[nH]c(=O)c12             >             100
7  CC(C)(C)C(=O)OCOP(=O)(OCOC(=O)C(C)(C)C)C1CCCN(O)C1=O (stereo not drawn)             =            1.26
8  CC/C(=C(/c1ccc(OCCN(C)C)cc1)c1ccc(OC(=O)CCCCC(=O)c2c(C)[nH]c(/C=C3\N=C(c4ccc[nH]4)C=C3OC)c2C)cc1)c1ccccc1             =              17

* * *

test system: A549 NSCLC; assay: NCI tumour cell line growth inhibition, 48 h
Listing: TGI of selected compounds
readout_kind: TGI

> print(dat)
                                   compound  test.system  readout.kind  recorded.value
1  CNCCNc1c2c(c(NCCNC)c3c(CN(C)C)c[nH]c13)C(=O)c1ccccc1C2=O   A549 NSCLC           TGI         11.2 µM
2  CC(C)(C)C(=O)OCOP(=O)(OCOC(=O)C(C)(C)C)C1CCCN(O)C1=O (centres undefined)   A549 NSCLC           TGI        > 100 µM
3  Cc1ccc(S(=O)(=O)N/N=C/C(=C/c2ccc(Cl)cc2)CC(/C=N/NS(=O)(=O)c2ccc(C)cc2)=C\c2ccc(Cl)cc2)cc1   A549 NSCLC           TGI        > 100 µM
4  CCOC(=O)Oc1c(OC)cc(C(=O)NC2CCc3cc(OC)c(OC)c(OC)c3-c3ccc(SC)c(=O)cc32)cc1OC (centres undefined)   A549 NSCLC           TGI         > 70 µM
5                        O=C(O)c1n[nH]nc1Cl   A549 NSCLC           TGI        > 100 µM
6  CCOC(=O)C1=C(C)N(C)C23OC4(C(=O)OC)CC2c2ccccc2C1N3C4=O (centres undefined)   A549 NSCLC           TGI        > 100 µM
7  Cc1cc2nc3c(C#N)c(-c4ccccc4)cc(Nc4ccc(Cl)cc4)n3c2cc1C   A549 NSCLC           TGI        > 100 µM
8  Cc1nnc(S(=O)(=O)c2ccc(N=Nc3c(N)nc(N)nc3N)cc2)s1   A549 NSCLC           TGI        > 100 µM
9  C=C(CCCCC)CN1CCCC1[C@@](C)(O)CC(=O)OCC (some centres undefined)   A549 NSCLC           TGI        > 100 µM

* * *

system: HL-60(TB) leukemia; test: NCI tumour cell line growth inhibition, 48 h
Listing: TGI of selected molecules

molecule	TGI
C=CC(Br)(CBr)CCC(Cl)C(C)C (centres undefined)	2.38 µM
CCC[CH2][Sn]([CH2]CCC)([CH2]CCC)[O]C(=O)CC	0.538 µM
CC(C)(C)OC(=O)NCC(O)CNC(=O)OC(C)(C)C	> 100 µM
O=Cc1cc2c(cc1-c1c(C=O)ccc3c1OCO3)OCO2	> 10 µM
C=C(C=O)[C@@H]1C2OC(=O)C(=C)[C@@H]2CC(O)[C@@]1(C)CC (some centres undefined)	5.92 µM
COc1ccc(N2C(=O)C(c3ccccc3)(c3ccccc3)C23C(=O)N(C)c2ccccc23)cc1 (centres undefined)	> 100 µM
O=C1NC(=Nc2ccccc2)S/C1=C\c1ccc2ncccc2c1	> 25 µM
O=C1c2ccccc2C(=O)C1(Cl)C1(S(=O)(=O)O)c2ccccc2-c2ccccc21	> 100 µM
CCCCc1c(OC)cc(O)c2c1C(=O)c1[nH]c(C(=O)O)c(O)c(=O)c1C2=O	> 100 µM
CCCCCCCCCC/C=C/CC(=O)SCCNC(=O)CCNC(=O)[C@@H](O)C(C)(C)COP(=O)(O)OP(=O)(O)OCC1OC(n2cnc3c(N)ncnc32)C(O)C1OP(=O)(O)O (some centres undefined)	> 10 µM
CCOC(=O)C1=C(C)N(C)C23OC4(C(=O)OC)CC2c2ccccc2C1N3C4=O (centres undefined)	> 100 µM
CC(C)(C)c1cc(C(P(=O)(c2ccccc2)c2ccccc2)P(=O)(c2ccccc2)c2ccccc2)cc(C(C)(C)C)c1O	> 8.2 µM
COc1ccc2c(c1)CCC1C2CC[C@@]2(C)C1CC1=CC(COC(C)=O)C3C(=O)c4ccccc4C(=O)C3C12 (some centres undefined)	> 100 µM
Cc1cc(Br)cc(C)c1NC(=O)C(=O)C(C(=O)c1ccc2ccccc2c1)C1OC(=O)c2ccccc21 (centres undefined)	30.2 µM
O=S(=O)(Nc1cc(F)cc(Cl)c1)c1ccc(-c2cnc(C3CC3)o2)cc1	24.2 µM
COc1cc(-c2cc(=O)c3c(OC)c(OC)c(OC)c(OC)c3o2)c(OC)c(OC)c1OC	> 100 µM
NC(N)=NCCN=C(N)N	> 100 µM
COc1ncnc(C2CC2)c1-c1ncc2cnn(Cc3ccc(-c4nc(C(F)(F)F)cn4C(C)C)cc3)c2n1	> 100 µM
CCOC(=O)/C=C/C(C(=O)/C=C/c1ccc(OC2CCCCO2)c(OC)c1)=C(O)\C=C\c1ccc(OC2CCCCO2)c(OC)c1 (centres undefined)	> 100 µM

* * *

test system: HCT-116 colon; experiment: NCI tumour cell line growth inhibition, 48 h
Listing: TGI of selected molecules
readout_kind: TGI

molecule	recorded_value
Cc1cc(=O)[nH]c(NN2C(Cl)C(=O)C2c2cccc(O)c2)n1 (stereo unspecified)	> 100 µM
NS(=O)(=O)c1nn2c(Br)c(-c3ccccc3)nc2s1	7.3 µM
O=S(=O)(Nc1cc(F)cc(Cl)c1)c1ccc(-c2cnc(C3CC3)o2)cc1	16.4 µM
Cn1c(=O)c2c(nc(Nc3cc(=O)[nH]c(=O)[nH]3)n2Cc2ccccc2)n(C)c1=O	> 100 µM
CCOc1nc(-c2ccccc2)cc2c(O)c(-c3nnco3)[nH]c(=O)c12	> 100 µM
O=C(OC(=O)n1ccc2ccccc21)n1ccc2ccccc21	> 100 µM
O=C1CN=C(C[N+](=O)[O-])c2ccccc21	> 100 µM
CC(=O)O.CC(=O)O.CC(=O)O.CC(=O)O.CC(=O)O.CC(=O)O.O.[Ti].[Ti]	> 100 µM
O=C1c2ccccc2C(=O)C1(Cl)C1(S(=O)(=O)O)c2ccccc2-c2ccccc21	> 100 µM
C=C(C)[C@@]12OC3(/C=C/C=C/CCCCC)O[C@@H]1[C@@H]1[C@@H]4O[C@]4(CO)[C@@H](O)[C@]4(O)C(=O)C(C)=C[C@H]4[C@@]1(O3)[C@H](C)[C@H]2OC(=O)c1ccccc1	3.33 µM
N#CSC#Cc1ccc(C#CSC#N)cc1	38.7 µM
O=C1OC[C@@H]2Cc3cc4c(cc3[C@H](c3ccc5c(c3)OCO5)[C@@H]12)OCO4	> 25 µM
COc1ccc(NC(=O)CCc2cc(-c3ccc(O)c(OC)c3)nc(NC#N)n2)cc1	> 100 µM
COc1ccc(C(C)NNC(=O)c2ccncc2)c(OC)c1 (stereo unspecified)	> 100 µM
CCCCCCCCCCCCCCCCCCNc1ccn(C2OC(COP(=O)(O)OCC3OC(n4cc(C)c(=O)[nH]c4=O)CC3O)C(O)C2O)c(=O)n1 (stereo unspecified)	30.8 µM
Cc1ccc(S(=O)(=O)NCC2CCCCC2=O)cc1 (stereo unspecified)	> 100 µM
CC(C)(C)[SiH]12(OC(C(F)(F)F)(C(F)(F)F)c3ccccc31)OC(C(F)(F)F)(C(F)(F)F)c1ccccc12	13 µM
O=[N+]([O-])c1ccc(Cl)c(C=NC23CC4CC(CC(C4)C2)C3)c1	> 10 µM
Cc1ccc(NC(=O)c2c(C)nc(=O)n3c2N(/N=C/c2ccc(Cl)cc2)CC3)cc1	26.4 µM
CC(C)(C)OC(=O)NCC(O)CNC(=O)OC(C)(C)C	> 100 µM
CNC(=S)N(C)C(=S)Nn1c(=O)c(C)nn(C)c1=S	> 100 µM
Cc1ccc(SC(C)/C=C/NNC2=NC(c3ccccc3)C(c3ccccc3)=NN2)cc1 (stereo unspecified)	> 100 µM
O=Cc1ccc2c(c1)CC1(C2)Cc2ccc3c(c2C1)CCC3 (stereo unspecified)	19.1 µM
CCn1c(-c2cc(OC)cc(OC)c2)nc2c1C(=O)c1ccccc1C2=O	> 100 µM
C/C1=C\CC[C@@]2(C)O[C@@H]2[C@H]2OC(=O)[C@@H](CN(C)C)[C@@H]2CC1	20.4 µM
CCN(CC)c1c(N(CC)CC)c(=O)c1=O	20.8 µM
